- Study system: human TLR7 (Homo sapiens)
- Construct: expressed in transfected cells; host or cells: HEK293
- Test details: TLR7 cellular NFκB-luc reporter assay in transiently transfected HEK293 cells
- Format: cell-based
- Condition set: lowest effective concentration, 6 hours incubation
Property name: Human TLR 7 (LEC) (µM)
Output spec: scalar in µM, unitless text.

Check out these entries, answers already filled in.
Cc1cc(CNc2nc(N)nc3cccc(CO)c23)no1 [Compound 30]
0.63
CCn1ncnc1[C@H](C)Nc1nc(N)nc2cccc(OC)c12 (single isomer, unassigned) [Compound 21]
6.1

## Task What value of measured Human TLR 7 (LEC) is listed for Cc1ccc2c(N[C@H](C)c3ccccn3)nc(N)nc2c1 (single isomer, unassigned) [Compound 5] ?
## Result 0.53

## Task I'd like to know its Human TLR 7 (LEC). The molecule in question is COc1cccc2nc(N)nc(N[C@H](C)c3nccs3)c12 (single isomer, unassigned) [Compound 10]
## Result 0.42

* * *

- Study system: human TLR7 (Homo sapiens)
- Construct: expressed in transfected cells; host or cells: HEK293
- Test details: TLR7 cellular NFκB-luc reporter assay in transiently transfected HEK293 cells
- Type: cell-based
- Condition set: lowest effective concentration, 6 hours incubation
Property name: Human TLR 7 (LEC) (µM)
A number alone suffices; assume µM.

Example molecules with recorded Human TLR 7 (LEC):
COc1cccc2nc(N)nc(N[C@@H](C)[C@H](O)c3ccccc3)c12
0.61
CNC(=O)c1ccc2c(N[C@H](C)c3ccccn3)nc(N)nc2c1 (single isomer, unassigned)
8.24
COc1cccc2nc(N)nc(N[C@H](c3ccccn3)C(F)(F)F)c12 (single isomer, unassigned)
0.76
COc1ccc(F)c2nc(N)nc(NCc3cc(C)on3)c12
0.74
Cc1cc(CNc2nc(N)nc3cccc(C)c23)no1
0.11
COc1cccc2nc(N)nc(NCc3cc(C)on3)c12
0.047

## Task Fill blank: measured Human TLR 7 (LEC) of the molecule COc1cccc2nc(N)nc(N[C@H](C)c3cnn(C)c3)c12 (single isomer, unassigned) is ____.
## Result 2.44

## Task Would you kindly share the measured Human TLR 7 (LEC) for COCCOc1cccc2nc(N)nc(NCc3cc(C)on3)c12 ?
## Result 0.082

## Task Any idea what its Human TLR 7 (LEC) is? The molecule is CCN(CC)C(=O)c1ccc2c(N[C@H](C)c3ccccn3)nc(N)nc2c1 (single isomer, unassigned)
## Result 2.14

## Task What does the data say about its Human TLR 7 (LEC)? Entry: Cc1cc(CNc2nc(N)nc3cc(F)ccc23)no1
## Result 0.46

## Task I am curious: what Human TLR 7 (LEC) value has been reported for CC(Nc1nc(N)nc2cc(C(=O)N(C)C)ccc12)c1ccccn1 (centres unmarked) ?
## Result 6.67

* * *

- Study system: human TLR7 (Homo sapiens, UniProt Q9NYK1)
- Construct: expressed in transfected cells; host or cells: HEK293
- Sequence (Q9NYK1 27-1049): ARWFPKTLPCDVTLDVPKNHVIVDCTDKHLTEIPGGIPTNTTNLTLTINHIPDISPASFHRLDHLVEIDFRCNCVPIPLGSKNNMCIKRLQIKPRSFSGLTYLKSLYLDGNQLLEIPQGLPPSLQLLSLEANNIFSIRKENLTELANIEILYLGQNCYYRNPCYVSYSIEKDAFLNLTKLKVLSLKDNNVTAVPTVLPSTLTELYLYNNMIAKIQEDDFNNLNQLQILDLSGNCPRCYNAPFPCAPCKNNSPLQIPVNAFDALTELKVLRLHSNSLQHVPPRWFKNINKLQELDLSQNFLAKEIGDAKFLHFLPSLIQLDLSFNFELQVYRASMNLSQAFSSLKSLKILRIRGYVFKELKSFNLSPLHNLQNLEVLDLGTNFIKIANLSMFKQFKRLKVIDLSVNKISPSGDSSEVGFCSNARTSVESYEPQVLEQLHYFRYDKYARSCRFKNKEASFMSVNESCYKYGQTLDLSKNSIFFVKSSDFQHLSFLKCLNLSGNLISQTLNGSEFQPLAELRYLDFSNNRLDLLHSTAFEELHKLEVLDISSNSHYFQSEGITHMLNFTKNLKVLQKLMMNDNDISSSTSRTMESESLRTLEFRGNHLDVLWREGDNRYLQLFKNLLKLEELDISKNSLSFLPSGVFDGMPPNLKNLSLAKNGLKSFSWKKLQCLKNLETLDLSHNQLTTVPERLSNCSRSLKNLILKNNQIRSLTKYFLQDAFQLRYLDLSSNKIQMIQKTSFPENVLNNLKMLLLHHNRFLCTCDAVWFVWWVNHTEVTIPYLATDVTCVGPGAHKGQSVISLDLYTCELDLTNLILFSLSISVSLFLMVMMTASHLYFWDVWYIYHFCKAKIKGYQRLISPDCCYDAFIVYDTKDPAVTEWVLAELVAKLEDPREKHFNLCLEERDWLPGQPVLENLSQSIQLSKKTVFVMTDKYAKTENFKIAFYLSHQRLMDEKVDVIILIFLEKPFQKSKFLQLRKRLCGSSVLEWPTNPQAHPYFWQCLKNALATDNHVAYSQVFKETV
- Test details: TLR7 cellular NFκB-luc reporter assay in transiently transfected HEK293 cells
- Format: cell-based
- Condition set: lowest effective concentration, 6 hours incubation
Mark each entry MET if its Human TLR 7 (LEC) sits below 0.8 µM, and NOT MET for all others.

Example entries and their recorded answers appear below.
COc1cccc2nc(N)nc(N[C@H](C)c3cccc(C)n3)c12 (single isomer, unassigned)
NOT MET
C[C@@H](Nc1nc(N)nc2cc(F)ccc12)c1ccccn1 (single isomer, unassigned)
NOT MET

## Task Quick check: Human TLR 7 (LEC) of Nc1nc(N[C@@H](CO)[C@@H](O)c2ccccc2)c2ccccc2n1 under 0.8 µM?
## Result NOT MET

## Task Please state whether Human TLR 7 (LEC) is below 0.8 µM for C[C@@H](Nc1nc(N)nc2cc(C(=O)N3CCCC3)ccc12)c1ccccn1 (single isomer, unassigned)
## Result NOT MET

## Task Given the entry CCc1noc([C@@H](C)Nc2nc(N)nc3cccc(OC)c23)n1 (single isomer, unassigned) , would its reported Human TLR 7 (LEC) be below 0.8 µM?
## Result NOT MET

## Task Below 0.8 µM on Human TLR 7 (LEC)? Entry C[C@@H](Nc1nc(N)nc2ccccc12)c1ccccn1 (single isomer, unassigned)
## Result MET

## Task For this molecule, is Human TLR 7 (LEC) lower than 0.8 µM? CC(Nc1nc(N)nc2cc(C(=O)N(C)C(C)C)ccc12)c1ccccn1 (stereo not shown)
## Result NOT MET

## Task Item CNC(=O)c1ccc2c(NC(C)c3ccccn3)nc(N)nc2c1 (stereo not shown) : Human TLR 7 (LEC) beneath 0.8 µM, strictly?
## Result NOT MET

## Task Quick check: does COc1ccc2c(N[C@H](C)c3ccccn3)nc(N)nc2c1 (single isomer, unassigned) have Human TLR 7 (LEC) under 0.8 µM?
## Result NOT MET

## Task Find out if reported Human TLR 7 (LEC) for COc1cccc2nc(N)nc(N[C@H](C)c3ccccn3)c12 (single isomer, unassigned) is less than 0.8 µM
## Result NOT MET

## Task Consider C[C@@H](Nc1nc(N)nc2c(F)cccc12)c1ccccn1 (single isomer, unassigned) . Does its Human TLR 7 (LEC) lie strictly below 0.8 µM?
## Result NOT MET

## Task Is it true that Human TLR 7 (LEC) reported for Cc1cc(CNc2nc(N)nc3c(F)cccc23)no1 is less than 0.8 µM?
## Result MET

## Task Hello, I'm reviewing records and need to know if Human TLR 7 (LEC) of COC(=O)c1ccc2c(N[C@H](C)c3ccccn3)nc(N)nc2c1 (single isomer, unassigned) is below 0.8 µM. Could you check?
## Result NOT MET

## Task Is 0.8 µM strictly greater than the molecule's reported Human TLR 7 (LEC)? molecule: Cc1cc(CNc2nc(N)nc3cccc(F)c23)no1
## Result MET

## Task Bench note: check whether C[C@H](Nc1nc(N)nc2cccc(F)c12)c1ccccn1 (single isomer, unassigned) shows Human TLR 7 (LEC) below 0.8 µM
## Result NOT MET

* * *

- Study system: human TLR8 (Homo sapiens, UniProt Q9NR97)
- Construct: expressed in transfected cells; host or cells: HEK293
- Sequence (Q9NR97 27-1041): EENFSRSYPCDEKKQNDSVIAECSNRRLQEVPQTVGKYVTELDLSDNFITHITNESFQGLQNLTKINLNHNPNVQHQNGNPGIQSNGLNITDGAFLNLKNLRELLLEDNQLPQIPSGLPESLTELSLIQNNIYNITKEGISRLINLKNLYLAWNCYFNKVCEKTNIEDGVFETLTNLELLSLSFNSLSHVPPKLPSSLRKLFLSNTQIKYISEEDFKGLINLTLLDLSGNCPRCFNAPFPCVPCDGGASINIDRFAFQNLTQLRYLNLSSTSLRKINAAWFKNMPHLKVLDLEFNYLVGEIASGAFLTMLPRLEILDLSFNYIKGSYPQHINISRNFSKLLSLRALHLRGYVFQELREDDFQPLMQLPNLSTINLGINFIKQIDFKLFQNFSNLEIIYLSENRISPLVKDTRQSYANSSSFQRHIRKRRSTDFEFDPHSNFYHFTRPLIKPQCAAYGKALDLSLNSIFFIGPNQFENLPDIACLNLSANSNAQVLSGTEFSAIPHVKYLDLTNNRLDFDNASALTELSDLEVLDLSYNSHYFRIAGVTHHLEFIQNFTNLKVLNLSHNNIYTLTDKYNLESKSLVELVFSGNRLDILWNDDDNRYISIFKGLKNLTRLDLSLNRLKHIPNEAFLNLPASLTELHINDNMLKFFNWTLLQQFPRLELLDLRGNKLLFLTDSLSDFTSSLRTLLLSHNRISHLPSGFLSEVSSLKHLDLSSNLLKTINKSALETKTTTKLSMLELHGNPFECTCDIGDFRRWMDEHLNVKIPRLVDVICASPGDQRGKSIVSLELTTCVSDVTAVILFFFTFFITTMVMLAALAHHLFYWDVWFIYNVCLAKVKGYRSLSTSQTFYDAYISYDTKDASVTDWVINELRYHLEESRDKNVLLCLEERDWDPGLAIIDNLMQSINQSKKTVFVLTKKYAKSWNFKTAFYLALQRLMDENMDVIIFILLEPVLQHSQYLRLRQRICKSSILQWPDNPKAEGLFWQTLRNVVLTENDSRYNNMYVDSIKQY
- Test details: TLR8 cellular NFκB-luc reporter assay in transiently transfected HEK293 cells
- Assay type: cell-based
- Condition set: lowest effective concentration, 6 hours incubation
This listing pairs compounds with measured Human TLR 8 (LEC).

COc1cccc2nc(N)nc(N[C@H](C)c3cccc(C)n3)c12 (single isomer, unassigned) [Compound 20]
>25 µM

## Task What value of measured Human TLR 8 (LEC) is listed for COc1cccc2nc(N)nc(N[C@H](c3ccccn3)C(F)(F)F)c12 (single isomer, unassigned) [Compound 3] ?
## Result >25 µM

## Task Given the entry COc1cccc2nc(N)nc(N[C@H](C)c3nccs3)c12 (single isomer, unassigned) [Compound 10] , report its measured Human TLR 8 (LEC).
## Result 12.3 µM
